B1: CDC25A (parent)
chain: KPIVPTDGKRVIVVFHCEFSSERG

# Variants of: B1
# TEST_METHOD_NOTES: protein stability index of a GFP-peptide fusion (GPS, HEK-293T) (PSI 1-6); higher = more stable;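 note: lentivirally expressed fusions sorted by FACS into six bins by GFP to DsRed ratio, PSI derived from sequencing read proportions per bin multiplied by bin number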
# APPLIED_CONDITIONS: c terminus: a fixed tail appended
The label depends only on protein stability index: rule met if it is at least 2, rule not met if it is smaller.

SEQUENCE_ENTRY	CLASS_NAME
KPIVATDGKRVIVVFHCEFSSERG [P5A]	rule met
KPIVPTDGKRVIKVFHCEFSSERG [V13K]	rule met
KPIVPTDGKRVIVVFHCEFRSERG [S20R]	rule met
KPIVPTDGKRVIVVFHNEFSSERG [C17N]	rule met
KPIVPTDGKRVIVVFGCEFSSERG [H16G]	rule not met
KPIVPTDGKYVIVVFHCEFSSERG [R10Y]	rule met
KPIVPTDGKRVITVFHCEFSSERG [V13T]	rule met
KPIVPTDGKRVIVVPHCEFSSERG [F15P]	rule met
KPIVPTDGKRVIVQFHCEFSSERG [V14Q]	rule met
KPIVPTDGKRVIVVFHCEFSSERI [G24I]	rule met
CPIVPTDGKRVIVVFHCEFSSERG [K1C]	rule met
KPIVPCDGKRVIVVFHCEFSSERG [T6C]	rule met
KPIVPTDGKRVIVVFHLEFSSERG [C17L]	rule met
KPITPTDGKRVIVVFHCEFSSERG [V4T]	rule not met
KPIVPTDGKRTIVVFHCEFSSERG [V11T]	rule not met
KPIVPTDGKRVIMVFHCEFSSERG [V13M]	rule not met
KPIVPTDGKRVIVVFHCETSSERG [F19T]	rule met
KPIVPTDGKRVIVVFHCEQSSERG [F19Q]	rule met
KPIKPTDGKRVIVVFHCEFSSERG [V4K]	rule met
KPIVPTDWKRVIVVFHCEFSSERG [G8W]	rule met
KPEVPTDGKRVIVVFHCEFSSERG [I3E]	rule met
KPIVPTDGKRVIVVFHCEFHSERG [S20H]	rule met
KPIVPTDGKRVWVVFHCEFSSERG [I12W]	rule met
KPIQPTDGKRVIVVFHCEFSSERG [V4Q]	rule met
KPVVPTDGKRVIVVFHCEFSSERG [I3V]	rule met
KPIVPTDGKRVIVVFHCEFSAERG [S21A]	rule met
KPIVPTDGKRVIVVFHCEFSSERT [G24T]	rule met
KPIVPTDGKRVIVVFHCEFSSEKG [R23K]	rule met
KPIYPTDGKRVIVVFHCEFSSERG [V4Y]	rule met
KPIVPWDGKRVIVVFHCEFSSERG [T6W]	rule met
KVIVPTDGKRVIVVFHCEFSSERG [P2V]	rule not met
KPIVPTDGKRVIVVFHCEFSSWRG [E22W]	rule met
KPRVPTDGKRVIVVFHCEFSSERG [I3R]	rule met
KYIVPTDGKRVIVVFHCEFSSERG [P2Y]	rule met
KPIVPTDDKRVIVVFHCEFSSERG [G8D]	rule not met
KPIVPTFGKRVIVVFHCEFSSERG [D7F]	rule met
KPIVPTDGKRVIVVFHCEFSSLRG [E22L]	rule met
KPIVFTDGKRVIVVFHCEFSSERG [P5F]	rule met
KPIVPTDGKRVIVWFHCEFSSERG [V14W]	rule met
KPIVPTDGKRVIVVFHCRFSSERG [E18R]	rule met
KPIVPTDGKRVICVFHCEFSSERG [V13C]	rule not met
KPIVPTDGKRVIVVFHCEFFSERG [S20F]	rule met
KPIVPTDGKRVIVVFMCEFSSERG [H16M]	rule met
KPIVPTDGKRVIVVKHCEFSSERG [F15K]	rule met
KPIVPTDGKLVIVVFHCEFSSERG [R10L]	rule met
KPIVPTDGKREIVVFHCEFSSERG [V11E]	rule met
